# Measured target: influenza A virus (IAV) PA-Nter fragment (amino acids 1-209) (Influenza A virus, UniProt P31343)
# Construct: PA-Nter fragment (amino acids 1-209); made in house
# Assay explanation: FRET endonuclease activity assay
# Format: biochemical
# Reported conditions: 10 μM compound; % reduction of v0 compared to untreated
Here the recorded inhibition at 10 µM is given for each entry.

{"columns": ["Molecular string", "inhibition at 10 µM [%]"],
 "data": [
  ["CNC(=O)c1c(O)c(=O)cc(CNS(=O)(=O)c2ccc(C)cc2)n1C", 10],
  ["CNC(=O)c1c(O)c(=O)cc(CNS(=O)(=O)c2cccc(C)c2)n1C", 33],
  ["CC(C)NC(=O)c1c(O)c(=O)cc(CNS(=O)(=O)c2cccc(Cl)c2)n1C", 13],
  ["CC(C)NC(=O)c1c(O)c(=O)cc(CNS(=O)(=O)c2ccc(Cl)cc2)n1C", 11],
  ["CC(C)NC(=O)c1c(O)c(=O)cc(CNS(=O)(=O)c2ccccc2)n1C", 13]
]}
